B1: DNA polymerase IV, Q97W02 (parent)
chain: MIVLFVDFDYFYAQVEEVLNPSLKGKPVVVCVFSGRFEDSGAVATANYEARKFGVKAGIPIVEAKKILPNAVYLPMRKEVYQQVSSRIMNLLREYSEKIEIASIDEAYLDISDKVRDYREAYNLGLEIKNKILEKEKITVTVGISKNKVFAKIAADMAKPNGIKVIDDEEVKRLIRELDIADVPGIGNITAEKLKKLGINKLVDTLSIEFDKLKGMIGEAKAKYLISLARDEYNEPIRTRVRKSIGRIVTMKRNSRNLEEIKPYLFRAIEESYYKLDKRIPKAIHVVAVTEDLDIVSRGRTFPHGISKETAYSESVKLLQKILEEDERKIRRIGVRFSKFIEAIGLDKFFDT

# Variants of: B1
# Recorded conditions: Saccharolobus solfataricus (strain ATCC 35092 / DSM 1617 / JCM 11322 / P2); pH 7.5; Thermal; CD; Na3PO4; NaCl MgCl2 50000 5000; structure 2RDI; whole UniProt chain shown
Readings of Tm for the listed variants
Please give a number only; it is taken to be in °C.

E100A E235A R240A ... 88.3

Request the reported Tm associated with R240A
96.5

Note, next up: K148A E235A R240A
90.3
